Assay: The drug is tested on Z-021 corresponding to metagenome with ENA study accession number: PRJEB37062 and ENA sample accession number: ERS12561820 for biotransformation under anaerobic condition. The drug concentrations were measured over 9 timepoints collected between 0 and 24 hours of incubation by liquid-chromatography-coupled mass spectrometry (LC–MS); note: call rule not given here
Details: 2 µM
test-readout: Bacterial Biotransformation

INSERT INTO results (compound, test_readout, value) VALUES
  ('NC(CO)(CO)CO.O=C(c1ccccc1)c1ccc2n1CCC2C(=O)O (stereo not given)', 'Bacterial Biotransformation', 'Compound metabolized'),
  ('Cc1ccnc2c1NC(=O)c1cccnc1N2C1CC1', 'Bacterial Biotransformation', 'Compound NOT metabolized'),
  ('CCOC(=O)[C@H](CCc1ccccc1)N[C@@H](C)C(=O)N1[C@H](C(=O)O)C[C@@H]2CCC[C@@H]21', 'Bacterial Biotransformation', 'Compound metabolized'),
  ('CC(C)(Oc1ccc(CCNC(=O)c2ccc(Cl)cc2)cc1)C(=O)O [BEZAFIBRATE]', 'Bacterial Biotransformation', 'Compound metabolized'),
  ('Nc1c2c(nc3ccccc13)CCCC2', 'Bacterial Biotransformation', 'Compound NOT metabolized'),
  ('CC[C@@H](CO)NC(=O)[C@@H]1C=C2c3cccc4c3c(cn4C)C[C@H]2N(C)C1.O=C(O)/C=C\C(=O)O [METHYSERGIDE MALEATE]', 'Bacterial Biotransformation', 'Compound NOT metabolized'),
  ('Cc1nc(-c2ccc(OCC(C)C)c(C#N)c2)sc1C(=O)O', 'Bacterial Biotransformation', 'Compound metabolized'),
  ('Cc1ccc(S(=O)(=O)NC(=O)NN2CCCCCC2)cc1 [TOLAZAMIDE]', 'Bacterial Biotransformation', 'Compound metabolized');

compound "CN/C(=N/CCSCc1nc[nH]c1C)NC#N" , Bacterial Biotransformation observed: Compound NOT metabolized

compound "CNC(=C[N+](=O)[O-])NCCSCc1ccc(CN(C)C)o1" , Bacterial Biotransformation observed: Compound NOT metabolized

----------
Conditions: human gut metagenome, 24 h, 2 µM
test-readout: Bacterial Biotransformation

Reference set (9 entries):
INSERT INTO measurements (molecule, test_readout, value) VALUES
  ('CC(C)NCC(O)COc1ccc(COCCOC(C)C)cc1.CC(C)NCC(O)COc1ccc(COCCOC(C)C)cc1.O=C(O)/C=C/C(=O)O (stereo not given) [BISOPROLOL FUMARATE]', 'Bacterial Biotransformation', 'Compound NOT metabolized'),
  ('CN1CCOC(c2ccccc2)c2ccccc2C1 (stereo not given) [NEFOPAM]', 'Bacterial Biotransformation', 'Compound NOT metabolized'),
  ('O=c1[nH]c2ccccc2n1C1CCN(CCCC(c2ccc(F)cc2)c2ccc(F)cc2)CC1 [PIMOZIDE]', 'Bacterial Biotransformation', 'Compound metabolized'),
  ('CN(C(=O)CN(CCO)CC(=O)N(C)C(C)(C)Cc1ccccc1)C(C)(C)Cc1ccccc1 [OXETHAZAINE]', 'Bacterial Biotransformation', 'Compound metabolized'),
  ('COc1c2occc2cc2ccc(=O)oc12 [METHOXSALEN]', 'Bacterial Biotransformation', 'Compound NOT metabolized'),
  ('CC(C)(C#N)c1cc(Cn2cncn2)cc(C(C)(C)C#N)c1 [ANASTROZOLE]', 'Bacterial Biotransformation', 'Compound NOT metabolized'),
  ('CCCc1nc2c(C)cc(-c3nc4ccccc4n3C)cc2n1Cc1ccc(-c2ccccc2C(=O)O)cc1', 'Bacterial Biotransformation', 'Compound metabolized'),
  ('CCC(COC(=O)c1cc(OC)c(OC)c(OC)c1)(c1ccccc1)N(C)C.O=C(O)/C=C\C(=O)O (stereo not given)', 'Bacterial Biotransformation', 'Compound metabolized'),
  ('Cc1nc(-c2ccc(OCC(C)C)c(C#N)c2)sc1C(=O)O [FEBUXOSTAT]', 'Bacterial Biotransformation', 'Compound metabolized');

molecule Br.CN(C)CCCC1(c2ccc(F)cc2)OCc2cc(C#N)ccc21 (stereo not given) [CITALOPRAM HYDROBROMIDE] , Bacterial Biotransformation observed: Compound NOT metabolized
